Test system: MCF7 breast
Protocol notes: NCI-60 one-dose screen, 48 h
Run conditions: 10 µM unless noted
Compounds without any hit were thinned out: in the full panel of roughly 83,000, 20% have a hit. Active and inactive are the calls of the source. The calls were made as follows: active = growth percent below 10; inactive = the rest.
Give your call using only these classes: Y for active, N for inactive

Input: Entry CCc1cccc(CC)c1N1C(=O)C=CC1=O : call = ?
Output: N

Input: Entry Nc1nc2ncc(CNc3ccc(C(=O)NC(CCC(=O)NC(CCC(=O)NC(CCC(=O)NC(CCC(=O)NC(CCC(=O)O)C(=O)O)C(=O)O)C(=O)O)C(=O)O)C(=O)O)cc3)nc2c(=O)[nH]1 (stereo unspecified) : call = ?
Output: N

Input: Entry O=C1C(=O)c2cccnc2-c2ncccc21 : call = ?
Output: Y

Input: Entry CC[n+]1ccc(Nc2ccc(NC(=O)c3ccc(Nc4cc[n+](CC)c5ccc([N+](=O)[O-])cc45)cc3)cc2)cc1 : call = ?
Output: N

Input: Entry C=C(C(N)=O)C(N)C(=O)O (stereo unspecified) : call = ?
Output: N

Input: Entry Oc1ccccc1N=Cc1ccccc1 : call = ?
Output: N

Input: Entry CCOC(=O)/C(=C\c1ccc2ccccc2c1)P(=O)(OCC)OCC : call = ?
Output: N

Input: Entry O=C(Cc1nc2cc(Cl)c(Cl)cc2nc1CC(=O)c1cccnc1)c1cccnc1 : call = ?
Output: N

Input: Entry NC(=Nc1nc(-c2ccccn2)cc2ccccc12)c1ccccn1 : call = ?
Output: Y

Input: Entry COc1cc(/C=C/C(=O)CC(=O)/C=C/c2ccc(O)c(OC)c2)ccc1O : call = ?
Output: N

Input: Entry Nc1ccc(C(=O)/C=C/c2ccccc2)cc1 : call = ?
Output: N

Input: Entry CCNc1nnnn1CC : call = ?
Output: N

Input: Entry CCCCCCCCCCCC[S+](C)CC(=O)[O-] (stereo unspecified) : call = ?
Output: N

Input: Entry S=C1SCN(Cc2cccs2)CN1Cc1cccs1 : call = ?
Output: N

Input: Entry CC(C)N=C(N)/N=C(\N)Nc1ccc2ccc3ccccc3c2c1 : call = ?
Output: Y

Input: Entry Oc1ccc(Cl)cc1C(c1cc(Cl)ccc1O)C(Cl)(Cl)Cl : call = ?
Output: Y

Input: Entry O=[N+]([O-])c1ccc2c(c1)Cc1ccccc1-2 : call = ?
Output: N

Input: Entry CCOC(=O)C1=C(C(=O)c2ccccc2)C(c2cccc([N+](=O)[O-])c2)C(C(=O)c2ccccc2)=C(C(=O)OCC)N1 : call = ?
Output: N

Input: Entry Oc1ccc2c(c1)CCc1ccccc1-2 : call = ?
Output: N

Input: Entry CCC[CH2][Sn]1([CH2]CCC)[O]C2C(CO)OC(n3ccc(N)nc3=O)C2[O]1 (stereo unspecified) : call = ?
Output: Y

Input: Entry OC(Cc1cc(CC(O)(C(F)(F)F)C(F)(F)F)nc(CC(O)(C(F)(F)F)C(F)(F)F)c1)(C(F)(F)F)C(F)(F)F : call = ?
Output: Y

Input: Entry COc1ccc(C(OCC2OC(n3ccc(NC(=O)c4ccccc4)nc3=O)C(O)C2O)(c2ccccc2)c2ccccc2)cc1 (stereo unspecified) : call = ?
Output: N

Input: Entry CC(O)C(O)C(O)C(O)C(O)C(=O)NNc1ccccc1 (stereo unspecified) : call = ?
Output: N

Input: Entry CCSc1nc2ccccc2o1 : call = ?
Output: N

Input: Entry COc1ccc(/C=C2/C(=O)ON=C2C)cc1 : call = ?
Output: N

Input: Entry O=C(c1ccc(O)c(Br)c1)c1ccc(O)c(Br)c1 : call = ?
Output: N

Input: Entry COC1CC(C)C(OC)c2cc(O)cc(c2O)NC(=O)/C(C)=C/C=C\C(C)C(OC(N)=O)/C(C)=C\C(C)C1OC (stereo unspecified) : call = ?
Output: N

Input: Entry CCN(CC)CC(O)CNc1ccc(NCC2CO2)c2c1C(=O)c1ccccc1C2=O (stereo unspecified) : call = ?
Output: Y

Input: Entry OC(c1cc(-c2ccc(Cl)cc2)nc2c(Cl)cccc12)C1CCCCN1 (stereo unspecified) : call = ?
Output: Y

Input: Entry O=[N+]([O-])C=C(c1ccccc1)c1ccccc1 : call = ?
Output: N

Input: Entry O=C(NOC(=O)c1ccccc1)c1ccccc1 : call = ?
Output: N

Input: Entry O=[N+]([O-])c1ccc(Oc2ccccc2Cl)c([N+](=O)[O-])c1 : call = ?
Output: N

Input: Entry O=C(c1ccccc1)c1cc2ccccc2oc1=O : call = ?
Output: N

Input: Entry Cc1onc(-c2ccccc2)c1C(=O)N/N=C/c1cc(Cl)cc(Cl)c1O : call = ?
Output: N

Input: Entry CN1CSC(=S)N(Cc2ccccc2)C1 : call = ?
Output: N

Input: Entry N#CC1c2ccccc2C=CN1C(=O)CCCl (stereo unspecified) : call = ?
Output: N

Input: Entry O=C(c1ccccc1)C(Br)[N+](=O)[O-] (stereo unspecified) : call = ?
Output: N

Input: Entry O=C1C=CC(=O)N1c1cccc2c1CCCC2 : call = ?
Output: N

Input: Entry Clc1ccccc1C(c1ccccc1)(c1ccccc1)n1ccnc1 : call = ?
Output: N

Input: Entry CCCCCCCCCCCC1N=C(N)N=C(N)N1c1cccc(Br)c1 (stereo unspecified) : call = ?
Output: Y

Input: Entry CC1(C)CCCC2=C1C(=O)N(SC(Cl)(Cl)Cl)C2=O : call = ?
Output: N

Input: Entry N#CC(I)CS(=O)(=O)c1ccccc1 (stereo unspecified) : call = ?
Output: N

Input: Entry NC(=S)N/N=C/c1ncccc1O : call = ?
Output: Y

Input: Entry OC(CSc1ccccc1)CN1CCN(c2ccc(Cl)cc2)CC1 (stereo unspecified) : call = ?
Output: N

Input: Entry Cc1nn(CCO)c(C)c1N=[N+]([O-])c1c(C)nn(CCO)c1C : call = ?
Output: Y

Input: Entry O=C(/C=C/C(Cl)(Cl)Cl)Nc1ccc(Cl)cc1 : call = ?
Output: N

Recorded values, source PubChem BioAssay (NCI).
